experiment: in vivo pharmacokinetic experiment in mice
Design: species or system ICR mice
run.parameters: mouse; oral intragastric administration 10 mg/kg, single, plasma
Description: Male ICR mice were subjected to oral intragastric administration. The plasma concentrations of the compounds of the present disclosure in the mice were measured, the PK parameters were calculated, and pharmacokinetic evaluation was performed on the compounds of the present disclosure. […] The concentrations of the plasma samples were measured by high-performance liquid chromatography-tandem mass spectrometry (LC-MS/MS). […]
property.label: Tmax
Please state the value followed by its unit.

Exam item: Read off the recorded Tmax for `C[C@@H]1C[C@H](C(=O)Cn2cc(C#N)cn2)[C@@]2(C)CC[C@H]3[C@@H](CC[C@@H]4C[C@](C)(O)[C@@H](C)C[C@@H]43)[C@H]12`
Marked response: 4 h

FYI, the data here is from patent EP4711377A1.
